Molecular target: T1, human FLT3 protein (human, UniProt P36888 27-541, limits assumed)
T1 construct: protein coated in the screening ELISA; also called ELISA FLT3
Assay: colorimetric ELISA, signal over control wells lacking FLT3
FLT3/control values, listed per item
Supply the numeric figure in ratio, leaving out any unit text.

Study these solved cases before continuing.
binder	units label	FLT3/control
FLL129 (VHH, llama anti-FLT3 variable domain; E. coli periplasmic extract) VHH: QVQLQESGGGLVQAGGSLRLSCAASGVTFSASYIDWYRQAPGNEREWVAQITRGGDSFYADSVKGRFAISRDNAKNTVYLQMNSLKPEDTAVYYCRVLSYWGQGTQVTVSS	ratio	9
FLL86 (VHH, llama anti-FLT3 variable domain; E. coli periplasmic extract) VHH: QVQLQESGGGLVQPGDPLRLSCAASGSTFSRNYIDWYRQAPGKQREWVAQITSGGNTHYEPSLKGRFTISRDNAKNTAYLQMNSLKPEDTAVYYCRILDYWGQGTQVTVSS	ratio	15
FLL158 (VHH, llama anti-FLT3 variable domain; E. coli periplasmic extract) VHH: QVQLQESGGGLVQPGGSLRLSCAASGSTFGRNYIDWYRQAPGKQREWVAQITSGGNTHYEPSLKGRFTISRDNAKNTAYLQMNSLKPEDTAVYYCRILDYWGQGTQVTVSS	ratio	17
FLL74 (VHH, llama anti-FLT3 variable domain; E. coli periplasmic extract) VHH: QVQLQESGGGLVQAGGSLRLSCRFSGRTFSGFGTGWFRQAPGKEREFVAAISWAGGRTHYEDSVKGRFTISRDNAKNTVYLQMNSLKPEDTAVYYCAVQVSRAYDGIWYSGGDYWGQGTQVTVSS	ratio	6
FLL141 (VHH, llama anti-FLT3 variable domain; E. coli periplasmic extract) VHH: QVQLQESGGGLVQAGGSLRLSCAASGRTFSSYAMGWFRQAPGMEREFVAAISWSGYSTYYADSVKGRFTISRDDAKNTVYLQMDSLKPEDTAVYYCAAGGSTRVVVTTTPVVKYWGQGTQVTVSS	ratio	28

Give recorded FLT3/control. FLL177 (VHH, llama anti-FLT3 variable domain; E. coli periplasmic extract) VHH: QVQLQESGGGLVQTGGSLRLSCAASGSTFSRNTMGWFRQAPGKERVFVLGISWSGIRSYYLDSAKARFTISRDNAKNTVYLQMNSLRPEDTAVYYCAAQEGSSPGPYKYWGQGTQVTVSS
54

// Input: FLL107 (VHH, llama anti-FLT3 variable domain; E. coli periplasmic extract) VHH: QVQLQESGGGLVQAGGSLRLSCAASGRTFSSYAMGWFRQAPGKEREFVAAISWSGSNTYYADSVKGRFTISRDNAKNTVYLQMDSLKPEDTAVYYCAAGGSTRVVVTTTPVVKYWGQGTQVTVSS . Output its FLT3/control only.
11

Provide FLT3/control value for the following binder: FLL27 (VHH, llama anti-FLT3 variable domain; E. coli periplasmic extract) VHH: QVQLQESGGGLVQPGGSLRLSCKASGFTFSSYAMSWVRQAPGKGLEWVSGISSGGYKIGYTDSTKGRFTISRDNAKNTLYLQMNSLNAEDTAVYYCAKGTQWSWALRDSTSRGQGTQVTVSS
10
